test: Probe fluorescence ratio response to arachidonic acid relative to ADIFAB2; type: binding; conditions: arachidonic acid; response relative to ADIFAB2

# molecule, DR/DR AA
data = [
    ("104T1, 72A (protein, listed as Rattus norvegicus, PEPTIDE (1)...(131) wild-type rat intestinal fatty acid binding protein) AFDGTWKVDRNENYEKFMEKMGINVVKRKLGAHDNLKLTITQEGNKFTVKESSNFRNIDVVFELGVDFAYSAADGTELTGTWTMEGNKLVGKFKRVDNGKELITVREISGNELIQTYTYEGVEAKRIFKKE", 1.01),
    ("18I 55G 73M 72A (protein, listed as Rattus norvegicus, PEPTIDE (1)...(131) wild-type rat intestinal fatty acid binding protein) AFDGTWKVDRNENYEKFIEKMGINVVKRKLGAHDNLKLTITQEGNKFTVKESSNGRNIDVVFELGVDFAYSAMDGTELTGTWTMEGNKLVGKFKRVDNGKELIAVREISGNELIQTYTYEGVEAKRIFKKE", 0.895),
    ("72Q (protein, listed as Rattus norvegicus, PEPTIDE (1)...(131) wild-type rat intestinal fatty acid binding protein) AFDGTWKVDRNENYEKFMEKMGINVVKRKLGAHDNLKLTITQEGNKFTVKESSNFRNIDVVFELGVDFAYSQADGTELTGTWTMEGNKLVGKFKRVDNGKELIAVREISGNELIQTYTYEGVEAKRIFKKE", 0.770),
    ("72S 73W 74N (protein, listed as Rattus norvegicus, PEPTIDE (1)...(131) wild-type rat intestinal fatty acid binding protein) AFDGTWKVDRNENYEKFMEKMGINVVKRKLGAHDNLKLTITQEGNKFTVKESSNFRNIDVVFELGVDFAYSSWNGTELTGTWTMEGNKLVGKFKRVDNGKELIAVREISGNELIQTYTYEGVEAKRIFKKE", 3.770),
    ("55Y, 72A (protein, listed as Rattus norvegicus, PEPTIDE (1)...(131) wild-type rat intestinal fatty acid binding protein) AFDGTWKVDRNENYEKFMEKMGINVVKRKLGAHDNLKLTITQEGNKFTVKESSNYRNIDVVFELGVDFAYSAADGTELTGTWTMEGNKLVGKFKRVDNGKELIAVREISGNELIQTYTYEGVEAKRIFKKE", 0.471),
    ("17P, 72A (protein, listed as Rattus norvegicus, PEPTIDE (1)...(131) wild-type rat intestinal fatty acid binding protein) AFDGTWKVDRNENYEKPMEKMGINVVKRKLGAHDNLKLTITQEGNKFTVKESSNFRNIDVVFELGVDFAYSAADGTELTGTWTMEGNKLVGKFKRVDNGKELIAVREISGNELIQTYTYEGVEAKRIFKKE", 0.51),
    ("38I 72G (protein, listed as Rattus norvegicus, PEPTIDE (1)...(131) wild-type rat intestinal fatty acid binding protein) AFDGTWKVDRNENYEKFMEKMGINVVKRKLGAHDNLKITITQEGNKFTVKESSNFRNIDVVFELGVDFAYSGADGTELTGTWTMEGNKLVGKFKRVDNGKELIAVREISGNELIQTYTYEGVEAKRIFKKE", 0.964),
    ("104D1, 72A (protein, listed as Rattus norvegicus, PEPTIDE (1)...(131) wild-type rat intestinal fatty acid binding protein) AFDGTWKVDRNENYEKFMEKMGINVVKRKLGAHDNLKLTITQEGNKFTVKESSNFRNIDVVFELGVDFAYSAADGTELTGTWTMEGNKLVGKFKRVDNGKELIDVREISGNELIQTYTYEGVEAKRIFKKE", 0.48),
    ("40V, 72A (protein, listed as Rattus norvegicus, PEPTIDE (1)...(131) wild-type rat intestinal fatty acid binding protein) AFDGTWKVDRNENYEKFMEKMGINVVKRKLGAHDNLKLTVTQEGNKFTVKESSNFRNIDVVFELGVDFAYSAADGTELTGTWTMEGNKLVGKFKRVDNGKELIAVREISGNELIQTYTYEGVEAKRIFKKE", 1.013),
    ("117L, 72A (protein, listed as Rattus norvegicus, PEPTIDE (1)...(131) wild-type rat intestinal fatty acid binding protein) AFDGTWKVDRNENYEKFMEKMGINVVKRKLGAHDNLKLTITQEGNKFTVKESSNFRNIDVVFELGVDFAYSAADGTELTGTWTMEGNKLVGKFKRVDNGKELIAVREISGNELIQTLTYEGVEAKRIFKKE", 0.38),
    ("72W 73T 74G (protein, listed as Rattus norvegicus, PEPTIDE (1)...(131) wild-type rat intestinal fatty acid binding protein) AFDGTWKVDRNENYEKFMEKMGINVVKRKLGAHDNLKLTITQEGNKFTVKESSNFRNIDVVFELGVDFAYSWTGGTELTGTWTMEGNKLVGKFKRVDNGKELIAVREISGNELIQTYTYEGVEAKRIFKKE", 2.808),
]
